Tested on: c-Abl (mouse);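 also: 11-residue human phosphosite peptides and single-mutation variants displayed on the E. coli surface, counted by deep sequencing, each peptide's frequency after selection divided by its frequency in the unselected input library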;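 also: frequency after pTyr selection over input frequency; kinase dosed for 20-30% of maximal phosphorylation in three min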
Assay: phosphorylation enrichment, bacterial display (enrichment ratio); higher = better substrate or ligand; peptides without Tyr show the background
Label n if phosphorylation enrichment falls below 0.6; label y in every other case.

[[record]]
sequence_record = "FHRQLYHKCTH [F12_Y58_YF]"
assigned_label = "n"

[[record]]
sequence_record = "FDDIAYIRKNL [PIK3CA_Y1021_T1025N]"
assigned_label = "n"

[[record]]
sequence_record = "AADGRYEVLFL [SEMA3F_Y478]"
assigned_label = "y"

[[record]]
sequence_record = "FSAPNYCYRCG [PPP2CA_Y265]"
assigned_label = "n"

[[record]]
sequence_record = "INITIYGKTFH [EFHC1_Y177_R182H]"
assigned_label = "y"

[[record]]
sequence_record = "VFPIDYYFPPQ [AR_Y552_L548F]"
assigned_label = "y"

[[record]]
sequence_record = "TTANRYLKVSD [MYOM2_Y871]"
assigned_label = "n"

[[record]]
sequence_record = "MDQAEYQAKIQ [DHX58_Y518_R523Q]"
assigned_label = "y"

